Measured values drawn from patent US11566007B2 for this set.

biological target: NRAS WT (Homo sapiens (Human), UniProt P01111+P62937); assay: Ras-Raf (BRAF RBD) disruption / FRET / MOA assay, NRAS WT; type: biochemical; details: read-out: IC50* NRAS WT FRET data
Sequence (P01111 whole entry, one chain of several): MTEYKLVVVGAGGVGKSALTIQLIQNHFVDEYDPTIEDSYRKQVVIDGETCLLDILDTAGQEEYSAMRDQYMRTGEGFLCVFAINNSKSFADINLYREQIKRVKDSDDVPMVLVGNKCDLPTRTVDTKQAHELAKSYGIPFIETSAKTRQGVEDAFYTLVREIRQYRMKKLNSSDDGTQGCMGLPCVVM
Parameter: IC50. Scope: all listed entries.

>  <compound>
CCn1c(-c2cccnc2[C@H](C)OC)c2c3cc(ccc31)N1CCC[C@@H](C[C@H](NC(=O)[C@H](C(C)C)N(C)C(=O)C3(F)CCN(C(=O)C#CC(C)(C)N(C)C)CC3)C(=O)N3CCC[C@H](N3)C(=O)OCC(C)(C)C2)C1 (atropisomer, axis not shown) [Example A615]

>  <IC50>
> 10000 nM

$$$$
>  <compound>
C=CC(=O)N1CCN(C(=O)N(C)[C@H](C(=O)N[C@H]2Cc3nc(cs3)-c3ccc4c(c3)c(c(-c3cccnc3[C@H](C)OC)n4CC)CC(C)(C)COC(=O)[C@@H]3CCCN(N3)C2=O)C(C)C)[C@H]2CC[C@H]21 (atropisomer, axis not shown) [Example A734]

>  <IC50>
10 to 100 nM

$$$$
>  <compound>
CCn1c(-c2cccnc2[C@H](C)OC)c2c3cc(ccc31)-c1csc(n1)C[C@H](NC(=O)CCO[C@H]1CCN(C(=O)C#CC(C)(C)N3CCC3)C1)C(=O)N1CCC[C@H](N1)C(=O)OCC(C)(C)C2 (atropisomer, axis not shown) [Example A381]

>  <IC50>
1000 to 10000 nM

$$$$
>  <compound>
C=CC(=O)N1CC[C@]2(COCCN2C(=O)N(C)[C@H](C(=O)N[C@H]2Cc3nc(cs3)-c3ccc4c(c3)c(c(-c3cccnc3[C@H](C)OC)n4CC)CC(C)(C)COC(=O)[C@@H]3CCCN(N3)C2=O)C(C)C)C1 (atropisomer, axis not shown) [Example A676]

>  <IC50>
100 to 1000 nM

$$$$
>  <compound>
CCn1c(-c2cccnc2[C@H](C)OC)c2c3cc(ccc31)-c1cccc(c1)C[C@H](NC(=O)[C@H](C(C)C)N1CC[C@]3(CCN(C(=O)C#C[C@@]4(N(C)C)CCOC4)C3)C1=O)C(=O)N1CCC[C@H](N1)C(=O)OCC(C)(C)C2 (atropisomer, axis not shown) [Example A560]

>  <IC50>
1000 to 10000 nM

$$$$
>  <compound>
CCn1c(-c2cccnc2[C@H](C)OC)c2c3cc(ccc31)C1=CCCN(C1)C[C@H](NC(=O)[C@@H](COC1CN(C(=O)C#CC(C)(C)N(C)C)C1)C(C)C)C(=O)N1CCC[C@H](N1)C(=O)OCC(C)(C)C2 (atropisomer, axis not shown) [Example A663]

>  <IC50>
> 10000 nM

$$$$
>  <compound>
C=CC(=O)N1CCN(C(=O)N(C)[C@H](C(=O)N[C@H]2Cc3nc(cs3)-c3ccc4c(c3)c(c(-c3cccnc3[C@H](C)OC)n4CC)CC(C)(C)COC(=O)[C@@H]3CCCN(N3)C2=O)C(C)C)[C@@H]2CC[C@@H]21 (atropisomer, axis not shown) [Example A718]

>  <IC50>
100 to 1000 nM

$$$$

---

Parameter: IC50. Scope: all listed entries.
biological target: NRAS WT (Homo sapiens (Human), UniProt P01111+P62937); assay: Ras-Raf (BRAF RBD) disruption / FRET / MOA assay, NRAS WT; assay type: biochemical; details: read-out: IC50* NRAS WT FRET data

>  <compound>
C=CC(=O)N1CCN(C(=O)N(C)[C@H](C(=O)N[C@H]2Cc3nc(cs3)-c3ccc4c(c3)c(c(-c3cccnc3[C@H](C)OC)n4CC)CC(C)(C)COC(=O)[C@@H]3CCCN(N3)C2=O)C(C)C)[C@H]2C[C@H]21 (atropisomer, axis not shown)

>  <assay.target>
NRAS WT (Homo sapiens (Human), UniProt P01111+P62937)

>  <IC50>
10 to 100 nM

$$$$
>  <compound>
CO[C@@H](C)c1ncccc1-c1c2c3cc(ccc3n1CC(F)(F)F)-c1cccc(c1)C[C@H](NC(=O)[C@H](C(C)C)N1CC[C@]3(CCN(C(=O)C#CC(C)(C)N(C)C)C3)C1=O)C(=O)N1CCC[C@H](N1)C(=O)OCC(C)(C)C2 (atropisomer, axis not shown)

>  <assay.target>
NRAS WT (Homo sapiens (Human), UniProt P01111+P62937)

>  <IC50>
1000 to 10000 nM

$$$$
>  <compound>
C=CC(=O)N1CCO[C@H]2CN(C(=O)N(C)[C@H](C(=O)N[C@H]3Cc4cc(C(F)F)cc(n4)-c4ccc5c(c4)c(c(-c4cccnc4[C@H](C)OC)n5CC(F)(F)F)CC(C)(C)COC(=O)[C@@H]4CCCN(N4)C3=O)C(C)C)C[C@H]21 (atropisomer, axis not shown)

>  <assay.target>
NRAS WT (Homo sapiens (Human), UniProt P01111+P62937)

>  <IC50>
1000 to 10000 nM

$$$$
>  <compound>
C=CC(=O)N1CCN(C(=O)N(C)[C@H](C(=O)N[C@H]2Cc3nc(cs3)-c3ccc4c(c3)c(c(-c3cccnc3[C@H](C)OC)n4CC)CC(C)(C)COC(=O)[C@@H]3CCCN(N3)C2=O)C(C)C)[C@@H]2C[C@@H]21 (atropisomer, axis not shown)

>  <assay.target>
NRAS WT (Homo sapiens (Human), UniProt P01111+P62937)

>  <IC50>
10 to 100 nM

$$$$

---

target: NRAS Q61K (Homo sapiens (Human), UniProt P01111+P62937, Q61K); assay: Ras-Raf (BRAF RBD) disruption / FRET / MOA assay, NRAS Q61K; format: biochemical; details: NRAS Q61K; Ras-Raf disruption/FRET/MOA assay; read-out: IC50* NRAS Q61K FRET data
Sequence (P01111 whole entry Q61K): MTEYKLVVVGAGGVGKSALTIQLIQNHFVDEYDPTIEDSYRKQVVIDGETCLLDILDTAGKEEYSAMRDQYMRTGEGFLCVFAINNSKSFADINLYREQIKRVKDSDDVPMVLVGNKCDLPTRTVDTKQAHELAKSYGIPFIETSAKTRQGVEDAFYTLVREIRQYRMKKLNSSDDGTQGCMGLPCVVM
Sequence (P62937 whole entry): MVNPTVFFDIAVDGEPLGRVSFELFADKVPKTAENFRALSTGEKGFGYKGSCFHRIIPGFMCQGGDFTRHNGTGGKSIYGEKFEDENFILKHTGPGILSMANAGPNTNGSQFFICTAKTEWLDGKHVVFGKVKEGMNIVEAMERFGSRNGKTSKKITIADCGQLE
pIC50: −log10 of the molar value.
Parameter: pIC50. Scope: all listed entries.

>  <compound>
C=CC(=O)N1CC[C@H](C(=O)N(C)[C@H](C(=O)N[C@H]2Cc3cc(cc(C(F)F)c3)-c3ccc4c(c3)c(c(-c3cccnc3[C@H](C)OC)n4CC)CC(C)(C)COC(=O)[C@@H]3CCCN(N3)C2=O)C(C)C)C1 (atropisomer, axis not shown) [Example A341]

>  <assay.target>
NRAS Q61K (Homo sapiens (Human), UniProt P01111+P62937, Q61K)

>  <pIC50>
5.00 to 6.00

$$$$
>  <compound>
C=CC(=O)N1CC[C@H](N(C)C(=O)N(C)[C@H](C(=O)N[C@H]2Cc3nc(cs3)-c3ccc4c(c3)c(c(-c3cccnc3[C@H](C)OC)n4CC)CC(C)(C)COC(=O)[C@@H]3CCCN(N3)C2=O)C(C)C)C1 (atropisomer, axis not shown) [Example A728]

>  <assay.target>
NRAS Q61K (Homo sapiens (Human), UniProt P01111+P62937, Q61K)

>  <pIC50>
6.00 to 7.00

$$$$
>  <compound>
C=CC(=O)N1CC[C@H](C(=O)N(C)[C@H](C(=O)N[C@H]2Cc3cc(O)cc(c3)-c3ccc4c(c3)c(c(-c3cncc5c3[C@@H](OC)CC5)n4CC)CC(C)(C)COC(=O)[C@@H]3CCCN(N3)C2=O)C(C)C)C1 [Example A275]

>  <assay.target>
NRAS Q61K (Homo sapiens (Human), UniProt P01111+P62937, Q61K)

>  <pIC50>
6.00 to 7.00

$$$$
>  <compound>
C=CC(=O)N1CC[C@H](C(=O)N(C)[C@H](C(=O)N[C@H]2Cc3cccc(c3)-c3ccc4c(c3)c(c(-c3cnn(C5CCN(C)CC5)c3[C@H](C)OC)n4CC)CC(C)(C)COC(=O)[C@@H]3CCCN(N3)C2=O)C(C)C)C1 [Example A482]

>  <assay.target>
NRAS Q61K (Homo sapiens (Human), UniProt P01111+P62937, Q61K)

>  <pIC50>
< 5.00

$$$$

---

molecular target: KRAS G12D (Homo sapiens (Human), UniProt P01116+P62937, G12D); assay: Ras-Raf (BRAF RBD) disruption / FRET / MOA assay, KRAS G12D; assay type: biochemical; conditions: Ras-Raf disruption/FRET/MOA assay; class symbols; read-out: KRAS G12D FRET data IC50
Sequence (P01116-2 other isoform, or with tags, fused parts or gaps G12D, one chain of several): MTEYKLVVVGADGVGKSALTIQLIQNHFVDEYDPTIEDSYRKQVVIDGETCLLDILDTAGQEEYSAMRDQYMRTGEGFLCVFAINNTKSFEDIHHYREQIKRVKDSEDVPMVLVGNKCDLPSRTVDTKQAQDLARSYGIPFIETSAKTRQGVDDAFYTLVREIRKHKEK
Parameter: IC50. Scope: all listed entries.
measured.metric: IC50

>  <molecule>
C=CC(=O)Nc1cnc(C(=O)N(C)[C@H](C(=O)N[C@H]2Cc3cc(O)cc(c3)-c3ccc4c(c3)c(c(-c3cccnc3[C@H](C)OC)n4CC)CC(C)(C)COC(=O)[C@@H]3CCCN(N3)C2=O)C(C)C)n1C [Example A334]

>  <measured.metric>
IC50

>  <result>
0.1 to 1 µM

$$$$
>  <molecule>
C=CC(=O)N1CC[C@H](C(=O)N(C)[C@H](C(=O)N[C@H]2CC3=NC=C(O3)c3ccc4c(c3)c(c(-c3cccnc3[C@H](C)OC)n4CC)CC(C)(C)COC(=O)[C@@H]3CCCN(N3)C2=O)C(C)C)C1 (atropisomer, axis not shown) [Example A331]

>  <measured.metric>
IC50

>  <result>
> 10 µM

$$$$
>  <molecule>
CCn1c(-c2cccnc2[C@H](C)OC)c2c3cc(ccc31)-c1cccc(c1)C[C@H](NC(=O)[C@H](C(C)C)N(C)C(=O)[C@H]1CCN(C(=O)C#CC3CCO3)C1)C(=O)N1CCC[C@H](N1)C(=O)OCC(C)(C)C2 (mixture of isomers)

>  <measured.metric>
IC50

>  <result>
> 10 µM

$$$$
>  <molecule>
CCn1c(-c2ccccc2CCOC)c2c3cc(ccc31)-c1cc(O)cc(c1)C[C@H](NC(=O)[C@H](C(C)C)N(C)C(=O)c1ccc(NC(=O)/C=C/CN(C)C)cc1)C(=O)N1CCC[C@H](N1)C(=O)OCC(C)(C)C2

>  <measured.metric>
IC50

>  <result>
> 10 µM

$$$$
>  <molecule>
CCn1c(-c2cccnc2[C@H](C)OC)c2c3cc(ccc31)-c1csc(n1)C[C@H](NC(=O)[C@@H](COC1CN(C(=O)C#CC(C)(C)N(C)C)C1)C(C)C)C(=O)N1CCC[C@H](N1)C(=O)OCC(C)(C)C2 (atropisomer, axis not shown)

>  <measured.metric>
IC50

>  <result>
> 10 µM

$$$$
>  <molecule>
C=CS(=O)(=O)N1CC2(CCN([C@H](C(=O)N[C@H]3Cc4cc(O)cc(c4)-c4ccc5c(c4)c(c(-c4cccnc4[C@H](C)OC)n5CC)CC(C)(C)COC(=O)[C@@H]4CCCN(N4)C3=O)C(C)C)C2=O)C1 (atropisomer, axis not shown)

>  <measured.metric>
IC50

>  <result>
1 to 10 µM

$$$$
>  <molecule>
CCn1c(-c2cccnc2[C@H](C)OC)c2c3cc(ccc31)-c1csc(n1)C[C@H](NC(=O)[C@H](C(C)C)N(C)C(=O)N1CCC3(CC1)CN(C(=O)/C=C/CN(C)C)C3)C(=O)N1CCC[C@H](N1)C(=O)OCC(C)(C)C2 (atropisomer, axis not shown)

>  <measured.metric>
IC50

>  <result>
0.1 to 1 µM

$$$$
>  <molecule>
CO[C@@H](C)c1ncccc1-c1c2c3cc(ccc3n1CC(F)(F)F)-c1cccc(c1)CN(NC(=O)[C@@H](COC1CN(C(=O)C#CC(C)(C)N(C)C)C1)C(C)C)C(=O)N1CCC[C@H](N1)C(=O)OCC(C)(C)C2 (atropisomer, axis not shown)

>  <measured.metric>
IC50

>  <result>
> 10 µM

$$$$
>  <molecule>
CCn1c(-c2cccnc2[C@H](C)OC)c2c3cc(ccc31)-c1csc(n1)C[C@H](NC(=O)[C@H](C(C)C)N(C)C(=O)N(C)C1CN(C(=O)/C=C/CN(C)C)C1)C(=O)N1CCC[C@H](N1)C(=O)OCC(C)(C)C2 (atropisomer, axis not shown)

>  <measured.metric>
IC50

>  <result>
1 to 10 µM

$$$$
>  <molecule>
C=CC(=O)N1CCN(C(=O)N(C)[C@H](C(=O)N[C@H]2Cc3nc(cs3)-c3ccc4c(c3)c(c(-c3cccnc3[C@H](C)OC)n4CC)CC(C)(C)COC(=O)[C@@H]3CCCN(N3)C2=O)C(C)C)[C@@H](C)C1 (atropisomer, axis not shown)

>  <measured.metric>
IC50

>  <result>
1 to 10 µM

$$$$
>  <molecule>
C=CC(=O)N1CC[C@H](C(=O)N(C)[C@H](C(=O)N[C@H]2Cc3cc(O)cc(c3)-c3ccc4c(c3)c(c(-c3ccccc3CO)n4CC)CC(C)(C)COC(=O)[C@@H]3CCCN(N3)C2=O)C(C)C)C1

>  <measured.metric>
IC50

>  <result>
> 10 µM

$$$$
>  <molecule>
C=CC(=O)N1CCC2(CC1)CCN2C(=O)N(C)[C@H](C(=O)N[C@H]1Cc2nc(cs2)-c2ccc3c(c2)c(c(-c2cccnc2[C@H](C)OC)n3CC)CC(C)(C)COC(=O)[C@@H]2CCCN(N2)C1=O)C(C)C (atropisomer, axis not shown)

>  <measured.metric>
IC50

>  <result>
0.1 to 1 µM

$$$$
>  <molecule>
CCn1c(-c2cccnc2[C@H](C)OC)c2c3cc(ccc31)N1CCC[C@@H](C[C@H](NC(=O)[C@@H](COC3CN(C(=O)C#CC(C)(C)N(C)C)C3)C(C)C)C(=O)N3CCC[C@H](N3)C(=O)OCC(C)(C)C2)C1 (atropisomer, axis not shown)

>  <measured.metric>
IC50

>  <result>
> 10 µM

$$$$
>  <molecule>
C=CC(=O)N1CC[C@H](C(=O)N(C)[C@H](C(=O)N[C@H]2Cc3cccc(c3)-c3ccc4c(c3)c(c(-c3cc(CN(C)C)cnc3[C@H](C)OC)n4CC)CC(C)(C)COC(=O)[C@@H]3CCCN(N3)C2=O)C(C)C)C1 (atropisomer, axis not shown) [Example A522]

>  <measured.metric>
IC50

>  <result>
> 10 µM

$$$$
>  <molecule>
CCn1c(-c2cccnc2[C@H](C)OC)c2c3cc(ccc31)-c1csc(n1)C[C@H](NC(=O)[C@@H](F)COC1CN(C(=O)C#CC(C)(C)N(C)C)C1)C(=O)N1CCC[C@H](N1)C(=O)OCC(C)(C)C2 (atropisomer, axis not shown)

>  <measured.metric>
IC50

>  <result>
1 to 10 µM

$$$$
